# Assay Remarks: Toxicity liver stage against HepG2, at 10uM
# Assay type: cell-based
# Set-up: test concentration 10 uM, cell line HepG2-A16-CD81EGFP
# Particulars: human, HepG2-A16-CD81EGFP cells; read-out: INHIBITION
cytotoxicity at 10 µM by entry:
Measurement Type: cytotoxicity at 10 µM (%)

In [3]: df
Out[3]:
                                   molecule       measurement_type  test_result
0   O=C(NCCn1nc2ccccn2c1=O)c1sccc1-c1ccccc1  cytotoxicity at 10 µM        -12.7
1               CCOc1ccc(Cl)cc1CNCCCn1ccnc1  cytotoxicity at 10 µM         1.36
2                N#Cc1ncn(Cc2c(F)cccc2Cl)n1  cytotoxicity at 10 µM        -3.94
3        Cc1nc(C2(NCc3cccc(F)c3F)CCCCC2)no1  cytotoxicity at 10 µM        0.749
4  COCCO[C@H]1CCN(C(=O)c2ccsc2)[C@H]1Cc1ccncc1  cytotoxicity at 10 µM        -75.4
5        CC(C)CNC1(Cc2cc(-c3ccccc3)on2)COC1  cytotoxicity at 10 µM         1.74
6  Cc1noc([C@@]23CCO[C@@H]2CCN(CC2CCOCC2)C3)n1  cytotoxicity at 10 µM         -2.1
7  COCC1c2c(cnn2C)CCN1Cc1cccc(C)c1 (stereo not drawn)  cytotoxicity at 10 µM        0.951

====

# Assay Remarks: Toxicity liver stage against HepG2, at 10uM
# Type: cell-based
# Design: test concentration 10 uM, cell line HepG2-A16-CD81EGFP
# Particulars: human, HepG2-A16-CD81EGFP cells; read-out: INHIBITION
Measurement Type: cytotoxicity at 10 µM (%)

In [3]: df
Out[3]:
                                    compound       measurement_type  unit_of_measurement  test_result
 0    COC[C@@]12CCO[C@@H]1CCN(Cc1ccccc1OC)C2  cytotoxicity at 10 µM                    %         -110
 1  CN1CCN(C(=O)c2n[nH]c3c2CCN(Cc2nccs2)C3)CC1  cytotoxicity at 10 µM                    %         -143
 2  Cc1cccc(CNC2CC3(CCN(CCO)CC3)c3ccccc32)n1 (centres undefined)  cytotoxicity at 10 µM                    %         -110
 3  CS(=O)(=O)NCCC1CN(Cc2ccccc2F)CCO1 (centres undefined)  cytotoxicity at 10 µM                    %        -7.31
 4  CCN(CC1CCOC1)C(=O)CSCC(=O)Nc1ccc(C)cc1 (centres undefined)  cytotoxicity at 10 µM                    %        -7.04
 5  CN(C)c1cc2c(nn1)CCN(C(=O)c1cc3c(s1)CCOC3)C2  cytotoxicity at 10 µM                    %         2.35
 6    O=C(C1CCCC1)N1CC(c2nc(Cc3ccccc3)no2)C1  cytotoxicity at 10 µM                    %         4.84
 7  CCc1nc(C2CCCN2C(=O)c2ccc(N(C)C)nn2)no1 (centres undefined)  cytotoxicity at 10 µM                    %        -11.4
 8           CN1CCN(C(=O)NC2CCCC2)Cc2cccnc21  cytotoxicity at 10 µM                    %       -0.123
 9         O=C(Nc1cc(C2CCOCC2)[nH]n1)c1cscn1  cytotoxicity at 10 µM                    %        -7.84
10  COCCN1C(=O)CC[C@@H]2[C@H]1CCN2Cc1ccc(C)s1  cytotoxicity at 10 µM                    %        -70.4
11      CCCn1nccc1-c1nccnc1CC1CCN(C(C)=O)CC1  cytotoxicity at 10 µM                    %        -6.15
12  OCC(O)CSCc1ccc(F)cc1Cl (centres undefined)  cytotoxicity at 10 µM                    %         -138
13      NC(=O)COc1cccc(C(=O)NCc2ccc(Cl)s2)c1  cytotoxicity at 10 µM                    %       -0.935
